# Tested on: COG-LL-332h
# Run description: selective drug sensitivity score (sDSS, relative to normal bone marrow) (sDSS (score)); higher = more potent and effective on the cell line relative to normal bone marrow cells;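 further: ALL cell lines in 384-well plates, five doses spanning 10,000-fold, each plate scaled between vehicle and 100 µmol/L benzalkonium chloride controls, sDSS an adapted area-under-curve metric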
# Run parameters: 72 h
Task for the reader: assign each of the following compounds its reported selective drug sensitivity score.

Reported selective drug sensitivity score of O=C(O)c1ccc(CN2CCC(CN[C@@H]3C[C@H]3c3ccccc3)CC2)cc1 (top concentration 100000 nM) : 0.08

Kindly give each listed record's selective drug sensitivity score.
1. COCCNCc1ccc(-c2cc3nccc(Oc4ccc(NC(=O)C5(C(=O)Nc6ccc(F)cc6)CC5)cc4F)c3s2)nc1 [Sitravatinib] (top concentration 2500 nM)
2. CC(C)C[C@H](NC(=O)[C@@H](COC(C)(C)C)NC(=O)[C@H](Cc1ccc(O)cc1)NC(=O)[C@H](CO)NC(=O)[C@H](Cc1c[nH]c2ccccc12)NC(=O)[C@H](Cc1cnc[nH]1)NC(=O)[C@@H]1CCC(=O)N1)C(=O)N[C@@H](CCCNC(=N)N)C(=O)N1CCC[C@H]1C(=O)NNC(N)=O [Goserelin] (top concentration 10000 nM)
3. C[C@H]1CN(C2COC2)CCN1c1ccc(Nc2cc(-c3ccnc(N4CCn5c(cc6c5CC(C)(C)C6)C4=O)c3CO)cn(C)c2=O)nc1 [GDC-0853] (top concentration 1000 nM)

OUTPUT:
5.98
-0.06
0

---

# Tested on: NALM-16
# Run description: selective drug sensitivity score (sDSS, relative to normal bone marrow) (sDSS (score)); higher = more potent and effective on the cell line relative to normal bone marrow cells
# Run parameters: 72 h
Endpoint label: selective drug sensitivity score
Answers are plain numbers.

The cases that follow already have their selective drug sensitivity score on record.
// recorded selective drug sensitivity score for C=CC(=O)Nc1cc(Nc2nccc(-c3cn(C)c4ccccc34)n2)c(OC)cc1N(C)CCN(C)C [Osimertinib] (top concentration 2500 nM) : -4.42

Record CCS(=O)(=O)N1CC(CC#N)(n2cc(-c3ncnc4[nH]ccc34)cn2)C1 [Baricitinib] (top concentration 2500 nM) , field selective drug sensitivity score: -1.94

Then there is this compound:
Form field selective drug sensitivity score, entry O=C(Nc1ccc2[nH]nc(-c3ccncc3)c2c1)[C@@H]1CCN(CC(=O)N2CCN(c3ccc(-c4ncccn4)cc3)CC2)C1 (top concentration 10000 nM) : -4.24

---

# Tested on: SUP-B15
# Run description: selective drug sensitivity score (sDSS, relative to normal bone marrow) (sDSS (score)); higher = more potent and effective on the cell line relative to normal bone marrow cells
# Run parameters: 72 h
Response key: 1 (yes) means selective drug sensitivity score >= -0.06; 0 (no) means selective drug sensitivity score < -0.06.

Example entries begin here.
INPUT: Dear colleague, could you confirm whether O=C(O)c1ccc(CN2CCC(CN[C@@H]3C[C@H]3c3ccccc3)CC2)cc1 (top concentration 100000 nM) has selective drug sensitivity score at or above -0.06?
OUTPUT: 0 (no)

INPUT: Could you tell me if the measured selective drug sensitivity score of C[C@@]1(C(=O)Nc2ccc(F)nc2)CCCN1c1nc(Nc2cc(C3CC3)n[nH]2)c2cccn2n1 (top concentration 10000 nM) reaches -0.06 or more?
OUTPUT: 1 (yes)

INPUT: Reported selective drug sensitivity score at or above -0.06? C=CC(=O)Nc1cccc(Nc2nc(Nc3ccc(N4CCN(C(C)=O)CC4)cc3OC)ncc2C(F)(F)F)c1 [Rociletinib] (top concentration 10000 nM)
OUTPUT: 1 (yes)

INPUT: Is reported selective drug sensitivity score greater than or equal to -0.06 here: CC(=O)c1cc2c(o1)C(=O)c1ccccc1C2=O [Napabucasin] (top concentration 20000 nM)
OUTPUT: 1 (yes)

INPUT: Determine whether this molecule has selective drug sensitivity score no lower than -0.06: COc1cc(Nc2ncc(F)c(Nc3ccc4c(n3)NC(=O)C(C)(C)O4)n2)cc(OC)c1OC [Tamatinib] (top concentration 10000 nM)
OUTPUT: 0 (no)

Continuing:
INPUT: Entry CC(O)(CS(=O)(=O)c1ccc(F)cc1)C(=O)Nc1ccc(C#N)c(C(F)(F)F)c1 (configuration not stated) [Bicalutamide] (top concentration 10000 nM) : is its selective drug sensitivity score no less than -0.06?
OUTPUT: 1 (yes)

---

# Tested on: NALL-1
# Run description: selective drug sensitivity score (sDSS, relative to normal bone marrow) (sDSS (score)); higher = more potent and effective on the cell line relative to normal bone marrow cells
# Run parameters: 72 h
Endpoint label: selective drug sensitivity score
Give bare numbers.

selective drug sensitivity score in this record for Nc1ncnc2c1nc(N)n2[C@@H]1O[C@H](CO)[C@@H](O)[C@H]1O [8-amino-adenosine] (top concentration 50000 nM) : 2.08

The molecule CONC(=O)c1ccccc1Nc1cc(Nc2cc(C)nn2C(C)C)ncc1Cl (top concentration 1000 nM) showed selective drug sensitivity score equal to -0.94

selective drug sensitivity score measured on CCCCOc1nc(N)c2c(n1)N(Cc1cccc(CN3CCCC3)c1)CC(=O)N2 [Vesatolimod] (top concentration 10000 nM) = -3.52

For this molecule ( C[C@@H]1CN(C(=O)c2ccc(NC(=O)c3cc(O[C@H](C)c4c(Cl)ccc(F)c4Cl)c(N)nn3)cc2)C[C@H](C)N1 [Ensartinib] (top concentration 1000 nM) ), measured selective drug sensitivity score is -2.84

Record C[C@H](Nc1ncnc2nc[nH]c12)c1cc2cccc(Cl)c2c(=O)n1-c1ccccc1 [Duvelisib] (top concentration 500 nM) , field selective drug sensitivity score: -0.94

// Clc1ccc(C(c2ccccc2Cl)C(Cl)Cl)cc1 (configuration not stated) [Mitotane] (top concentration 10000 nM) : selective drug sensitivity score value = -0.08

Now for a further molecule.
Recorded result, Cn1cc(CNCC2CCN(c3ncc(C(=O)NO)cn3)CC2)c2ccccc21 [Quisinostat] (top concentration 1000 nM) , selective drug sensitivity score: -0.72

---

# System: PF-382
# Run description: selective drug sensitivity score (sDSS, relative to normal bone marrow) (sDSS (score)); higher = more potent and effective on the cell line relative to normal bone marrow cells
# Run parameters: 72 h
Would you mind telling me the reported selective drug sensitivity score of each entry?
Answers are plain numbers.

Previously resolved entries follow.
Kindly note the recorded selective drug sensitivity score for Cc1nc2cccc(N)c2c(=O)n1C1CCC(=O)NC1=O (configuration not stated) [Avadomide (CC122)] (top concentration 10000 nM) , which is 0

Entry Nc1cccc2c1C(=O)N(C1CCC(=O)NC1=O)C2=O (configuration not stated) [Pomalidomide] (top concentration 10000 nM) — recorded selective drug sensitivity score = -0.26

Input CNc1ncc2cc(-c3cc(NC(=O)NCCC(C)(C)C)c(F)cc3C)c(C)nc2n1 (top concentration 10000 nM) . Output selective drug sensitivity score: 9.66

selective drug sensitivity score reported for this compound COc1cccc2c1C(=O)c1c(O)c3c(c(O)c1C2=O)C[C@@](O)(/C(CO)=N/NC(=O)CCCCCN1C(=O)C=CC1=O)C[C@@H]3O[C@H]1C[C@H](N)[C@H](O)[C@H](C)O1 [Aldoxorubicin] (top concentration 1000 nM) : 3.24

The compound listed as CC[C@@]1(O)C(=O)OCc2c1cc1n(c2=O)Cc2cc3c(CN(C)C)c(O)ccc3nc2-1 [Topotecan] (top concentration 10000 nM) shows selective drug sensitivity score equal to 18.2

Each compound below has a reported value. Please supply its selective drug sensitivity score.
1. Cc1nc(=O)c2cc(CN(C)c3ccc(C(=O)N[C@@H](CCC(=O)O)C(=O)O)s3)ccc2[nH]1 [Raltitrexed] (top concentration 1000 nM)
2. Clc1ccccc1C(c1ccccc1)(c1ccccc1)n1cccn1 [TRAM-34] (top concentration 1000 nM)

OUTPUT:
[13.1, -0.08]

---

Record form. Attribute: selective drug sensitivity score. Fill in for each entry.
# Test system: NALM-16
# Run description: selective drug sensitivity score (sDSS, relative to normal bone marrow) (sDSS (score)); higher = more potent and effective on the cell line relative to normal bone marrow cells
# Run parameters: 72 h
One number for each entry.

// sample CCS(=O)(=O)Nc1ccc(Oc2ccc(F)cc2F)c(-c2cn(C)c(=O)c3[nH]ccc23)c1 [Mivebresib] (top concentration 10000 nM) , its selective drug sensitivity score was 0.5

Field selective drug sensitivity score (entry CCN1CCN(c2ccc(Nc3cc(N(C)C(=O)Nc4c(Cl)c(OC)cc(OC)c4Cl)ncn3)cc2)CC1 [Infigratinib] (top concentration 1000 nM) ) reads 0

Just so you know, measured selective drug sensitivity score for CC[C@@H]1CN(C(=O)NCC(F)(F)F)C[C@@H]1c1cnc2cnc3[nH]ccc3n12 [Upadacitinib] (top concentration 10000 nM) came out at -7.16

What the record says about CC1(C)CCC(CN2CCN(c3ccc(C(=O)NS(=O)(=O)c4ccc(NCC5CCOCC5)c([N+](=O)[O-])c4)c(Oc4cnc5[nH]ccc5c4)c3)CC2)=C(c2ccc(Cl)cc2)C1 [Venetoclax] (top concentration 1000 nM) : selective drug sensitivity score is 22.6

Looking up CCS(=O)(=O)N1CCN(c2ccc(Nc3ncc(C(N)=O)c(NC4CC4)n3)cc2)CC1 [Cerdulatinib] (top concentration 10000 nM) , I see its selective drug sensitivity score listed as -11.4

Documented selective drug sensitivity score of Nc1ccccc1NC(=O)c1ccc(CNc2nccc(-c3cccnc3)n2)cc1 [Mocetinostat] (top concentration 10000 nM) : -0.46

// selective drug sensitivity score lookup, compound = COc1cc(C)c(/C=C/C(C)=C/C=C/C(C)=C/C(=O)O)c(C)c1C [Acitretin] (top concentration 10000 nM) , result: -1.6

selective drug sensitivity score reported for this compound Nc1ccn([C@@H]2O[C@H](CO)[C@@H](O)C2(F)F)c(=O)n1 [Gemcitabine] (top concentration 1000 nM) : 8.06

Could I get selective drug sensitivity score for every one of these entries?
1. Nc1cc(C(F)(F)F)c(-c2cc(N3CCOCC3)nc(N3CCOCC3)n2)cn1 [Buparlisib] (top concentration 10000 nM)
2. O=C(O)CCCCC(CCSCc1ccccc1)SCc1ccccc1 (configuration not stated) [Devimistat (CPI-613)] (top concentration 10000 nM)
3. CC(C)C[C@H](NC(=O)[C@@H](COC(C)(C)C)NC(=O)[C@H](Cc1ccc(O)cc1)NC(=O)[C@H](CO)NC(=O)[C@H](Cc1c[nH]c2ccccc12)NC(=O)[C@H](Cc1cnc[nH]1)NC(=O)[C@@H]1CCC(=O)N1)C(=O)N[C@@H](CCCNC(=N)N)C(=O)N1CCC[C@H]1C(=O)NNC(N)=O [Goserelin] (top concentration 10000 nM)
4. CN(C)C(=O)c1ccc(S(=O)(=O)c2ccc(NC(=O)[C@@](C)(O)C(F)(F)F)c(Cl)c2)cc1 [AZD7545] (top concentration 10000 nM)
5. COc1cc2ncnc(Nc3ccc(F)c(Cl)c3)c2cc1OCCCN1CCOCC1 [Gefitinib] (top concentration 10000 nM)
6. COc1cccc2c1C(=O)c1c(O)c3c(c(O)c1C2=O)C[C@@](O)(C(=O)CO)C[C@@H]3O[C@H]1C[C@H](N)[C@@H](O)[C@H](C)O1 [Epirubicin] (top concentration 1000 nM)
7. O=C(/C=C/c1cccc(S(=O)(=O)Nc2ccccc2)c1)NO [Belinostat] (top concentration 10000 nM)
8. O=C(Nc1cnn2ccc(N3CCC[C@@H]3c3cc(F)ccc3F)nc12)N1CC[C@H](O)C1 [Larotrectinib] (top concentration 1000 nM)

OUTPUT:
3.98
0.4
-0.06
0.3
-3.04
-0.28
2.5
-0.62

Batch of 6 compounds: report selective drug sensitivity score for each.
1. CC(=O)O[C@]1(C(C)=O)CC[C@H]2[C@@H]3C=C(C)C4=CC(=O)CC[C@]4(C)[C@H]3CC[C@@]21C [Megestrol_acetate] (top concentration 10000 nM)
2. C[C@@H](Nc1cc(F)cc(F)c1)c1cc(C(=O)N(C)C)cc2c(=O)cc(N3CCOCC3)oc12 [AZD-8186] (top concentration 1000 nM)
3. C=CC(=O)N1CC/C(=C\c2ccc(F)c([N+](=O)[O-])c2)C(=O)/C(=C/c2ccc(F)c([N+](=O)[O-])c2)C1 [VLX1570] (top concentration 10000 nM)
4. CO[C@H]1C[C@@H]2CC[C@@H](C)[C@@](O)(O2)C(=O)C(=O)N2CCCC[C@H]2C(=O)O[C@H]([C@H](C)C[C@@H]2CC[C@@H](OCCO)[C@H](OC)C2)CC(=O)[C@H](C)/C=C(\C)[C@@H](O)[C@@H](OC)C(=O)[C@H](C)C[C@H](C)/C=C/C=C/C=C/1C [Everolimus] (top concentration 100 nM)
5. O=c1ncn2nc(Sc3ccc(F)cc3F)ccc2c1-c1c(Cl)cccc1Cl [Neflamapimod] (top concentration 10000 nM)
6. C[C@]1(O)C[C@@H](c2nc(-c3ccc4ccc(-c5ccccc5)nc4c3)c3c(N)nccn32)C1 [Linsitinib] (top concentration 10000 nM)

OUTPUT:
-0.58
-0.06
-3.72
-2
0
-3.18
